# tested_on: T1, biotinylated recombinant human IL-12Rβ2 (human, UniProt Q99665 24-622, random biotinylated)
# T1 construct: Recombinant protein produced in-house, biotinylated; also called hIL-12RB2; human IL-12RB2
# T1 sequence: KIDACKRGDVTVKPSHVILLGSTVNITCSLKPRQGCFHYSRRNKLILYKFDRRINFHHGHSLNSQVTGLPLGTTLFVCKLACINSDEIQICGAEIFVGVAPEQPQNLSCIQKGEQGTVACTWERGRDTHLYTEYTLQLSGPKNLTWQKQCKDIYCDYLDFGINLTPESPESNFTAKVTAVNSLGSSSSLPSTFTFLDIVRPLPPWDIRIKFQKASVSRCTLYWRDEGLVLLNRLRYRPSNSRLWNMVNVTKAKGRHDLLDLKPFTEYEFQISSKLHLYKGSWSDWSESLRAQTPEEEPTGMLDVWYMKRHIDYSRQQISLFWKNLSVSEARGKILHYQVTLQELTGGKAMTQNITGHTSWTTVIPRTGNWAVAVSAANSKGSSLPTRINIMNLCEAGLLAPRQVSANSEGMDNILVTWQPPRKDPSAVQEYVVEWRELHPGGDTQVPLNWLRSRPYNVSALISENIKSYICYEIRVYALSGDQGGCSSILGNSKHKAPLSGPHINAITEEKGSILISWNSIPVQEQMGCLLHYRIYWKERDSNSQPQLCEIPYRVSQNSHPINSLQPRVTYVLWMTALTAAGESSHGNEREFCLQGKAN
# assay_comment: ELISA, periplasmic extract on biotinylated hIL-12Rβ2, signal over control wells
Known ELISA binding hIL-12RB2/control of a selection of binders
Report the figure in ratio without appending any unit label.

In: // returns reported ELISA binding hIL-12RB2/control for input anti-IL-12Rβ2 VHH clone 20468 (VHH, not shown: small tags and cut ends, tested as periplasmic extract; also called 2CAM6) VHH: QVQLQESGGGLVQAGGSLRLSCVASGRTFSSYGMGWFRQAPGKEREFVTGISSAGSWIGDITSYADSVKGRFTISRDNAKNILYLQMNSLKPEDTAVYYCAAAYHGSRYYVGSTANEYTTWGQGTQVTVSS
Out: 0.955

In: // returns reported ELISA binding hIL-12RB2/control for input anti-IL-12Rβ2 VHH clone 20512 (VHH, not shown: small tags and cut ends, tested as periplasmic extract; also called 3CAM57) VHH: QVQLQESGGGLVQAGGSLRLSCTPSGRTFSTLAMGWFRQAPGKEREVVATISWSGGRTYYASSVKSRFTISRDNAKNTAYLQMNSLRPDDTAVYYCAARGTDYGAYDYWGQGTQVTVSS
Out: 1.31

In: // returns reported ELISA binding hIL-12RB2/control for input anti-IL-12Rβ2 VHH clone 20555 (VHH, not shown: small tags and cut ends, tested as periplasmic extract; also called 3CAMS81) VHH: QVQLQESGGGLVQAGGSLRLSCAPSGRTFSTLAMGWFRQAPGKEREVVATISWSGGRTYYADSVKGRFTISRNNAKNTAYLQMNNLRPDDTAVYYCAARETDYGAYDYWGQGTQVTVSS
Out: 1.06

In: // returns reported ELISA binding hIL-12RB2/control for input anti-IL-12Rβ2 VHH clone 21062 (VHH, not shown: small tags and cut ends, tested as periplasmic extract; also called 3CRHM99) VHH: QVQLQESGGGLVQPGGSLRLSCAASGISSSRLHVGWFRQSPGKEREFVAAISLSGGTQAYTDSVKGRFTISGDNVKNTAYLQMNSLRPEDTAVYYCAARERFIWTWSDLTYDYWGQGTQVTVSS
Out: 4.24
